IC50 at 48 h values, listed per item
Test: Cytotoxicity in HepG2 cells (intracellular ATP, ATPlite, 48 h)
Type: cell-based, human
Details: human, HepG2 cells; IC50 per ratio column head; unit inferred; read-out: Cytotoxicity in HepG2

INSERT INTO measurements (compound, value_kind, observed_result) VALUES
  ('c1ccc(CN2CCN(CCCCNc3c4ccccc4nc4ccccc34)CC2)cc1 [TCMDC-138009]', 'IC50 at 48 h', '9.92 µM'),
  ('CCn1ncc2c(NC3CCOCC3)c(CNC(=O)c3ccnn3C)c(C)nc21 [TCMDC-136560]', 'IC50 at 48 h', '> 25 µM');

[Q] // fetch IC50 at 48 h given entry CC(C)CNCc1cccc(-c2cccc(CNCCCN3CCN(C)CC3)c2)c1 [TCMDC-140483]
[A] > 25 µM

[Q] // fetch IC50 at 48 h given entry c1ccc2c(NCCCCCCNc3ccnc4ccccc34)ccnc2c1 [TCMDC-137913]
[A] 16.4 µM

[Q] // fetch IC50 at 48 h given entry COc1cc2c(c(Cl)c1OC)CCN(C(=O)C(F)(F)F)CC2c1ccccc1 (centres unmarked) [TCMDC-132071]
[A] > 25 µM

[Q] // fetch IC50 at 48 h given entry COc1ccc(C[C@H](N)C(=O)N[C@H]2[C@@H](O)[C@H](n3cnc4c(N(C)C)ncnc43)O[C@@H]2CO)cc1 [TCMDC-123493]
[A] 2.95 µM

[Q] // fetch IC50 at 48 h given entry CS(=O)(=O)c1cccc(-c2cnc3[nH]cc(-c4cccc(CCN)c4)c3c2)c1 [TCMDC-136307]
[A] > 25 µM

[Q] // fetch IC50 at 48 h given entry c1cc(Nc2nc(-c3ccc(-c4csc(Nc5ccncc5)n4)cc3)cs2)ccn1 [TCMDC-139725]
[A] 17.3 µM

Reference source: paper PMC4552634
